Tested on: MDA-MB-468 breast
Assay: NCI tumour cell line growth inhibition, 48 h; in the data active means GI50 below about 0.43 µM; inactive means the rest
Mark one answer only. Choices: YES (active), NO (inactive)

Sample answers from the record:
compound	group label
CN1CCN(Cc2ccc(NC(=O)c3cncc(C#Cc4cnc5ccc(OCC6COC6)nn45)c3)cc2C(F)(F)F)CC1	YES
O=C(NC(=S)Nc1ccc(-c2nc3ccccc3[nH]2)cc1)c1ccc2ccccc2c1	NO

Ask | Each compound tested received a call. Report the one for COC(=O)CC12CC(NC(=O)c3csc([C@@H](C[C@H](C(C)C)N(C)C(=O)[C@@H](NC(=O)[C@H]4CCCCN4C)C(C)C)OC(C)=O)n3)(C1)C2 .
Reply | YES

Ask | Each compound tested received a call. Report the one for COc1ccc2c(c1)OC(N)=C(C#N)C2c1ccc(F)c(F)c1 (centres undefined) .
Reply | YES

Ask | Each compound tested received a call. Report the one for NCCSC1(O)C(=O)c2ccccc2-c2ccccc21 (centres undefined) .
Reply | NO

Ask | Each compound tested received a call. Report the one for COc1cc2cc(Oc3ccc(NC(=O)Nc4ccc(F)c(C(F)(F)F)c4)cc3)c(C)nc2cc1OCCN1CCOCC1 .
Reply | NO

Ask | Each compound tested received a call. Report the one for O=C(CSc1nc2ccc([N+](=O)[O-])cc2[nH]1)Nc1ccc([N+](=O)[O-])cc1 .
Reply | NO

Ask | Each compound tested received a call. Report the one for O=C(/C=C/c1cccnc1)c1ccccc1 .
Reply | NO

---

Test system: MDA-MB-468 breast
Assay: NCI tumour cell line growth inhibition, 48 h
measurement type: GI50

compound	measurement type	measured value
CCOC(=O)Nc1ccc2c3c(cccc13)-c1ccccc1-2	GI50	1370 nM
COc1c(O)cc2c(c1CC=C(C)C)OC(=O)c1c(cc(O)c(CC=C(C)C)c1O)O2	GI50	4190 nM
C#CCN(C)CCCOc1ccc(NCc2ccc(C(=O)NO)cc2)cc1Cl	GI50	1700 nM

Ask | Returns the measured GI50 for the input compound. Input: NNC(=S)N/N=C/c1ccccn1
Reply | 1940 nM

Ask | Returns the measured GI50 for the input compound. Input: Cc1ccc(O)cc1Nc1nc(SCCN2CCOCC2)nc2c1cnn2CC(Cl)c1ccc(Br)cc1 (stereo unspecified)
Reply | 1840 nM

Ask | Returns the measured GI50 for the input compound. Input: CC(C)c1ccc2c(c1)CCC1C(C)(CN)CCCC21C (stereo unspecified)
Reply | 1430 nM

Taken from PubChem BioAssay (NCI).
